Hey, just so you know, these numbers are from PubChem BioAssay (EPA / NIEHS).

Read-out: urokinase plasminogen activator (uPA), PLAU (gene 5328)
Test: BSK_BE3C_uPA: BioMAP Diversity Plus: BE3C Assay for urokinase plasminogen activator (uPA) Biomarker Activity (AID 2283038)
Settings: primary human bronchial epithelial cells; actives raise or lower the signal
Procedure: BSK_BE3C is a cell-based, multiplexed-readout assay that uses bronchial epithelial cell, a human lung primary cell, with measurements taken at 24 hours after chemical dosing in a 96-well plate.BSK_BE3CA is an assay component measured in the BSK_BE3C assay. It measures uPA antibody related to regulation of gene expression using ELISA technology.Data from the assay component BSK_BE3CA was analyzed into 1 assay endpoint. […]
Activity calls are given as the source filed them. Rule for the calls: active = hit-call score of the fitted dose curve at least 0.9, where 1 is the maximum; inactive = score below 0.9.
Pick one and only one: label 1 for active, label 0 for inactive

Answered examples (10):
> print(dat)
                                    compound  category.label
 1                      Oc1ccc(-c2ccccc2)cc1         label 0
 2  COP(=S)(OC)Oc1ccc(Sc2ccc(OP(=S)(OC)OC)cc2)cc1         label 0
 3                    O=Cc1cccc(Oc2ccccc2)c1         label 0
 4  COC(=O)c1sccc1S(=O)(=O)NC(=O)Nc1nc(C)nc(OC)n1         label 0
 5                       CCCCCCCCc1ccc(O)cc1         label 1
 6                            Cn1sc(Cl)cc1=O         label 0
 7  CC(=O)OC(c1ccccc1)C(Cl)(Cl)Cl (centres undefined)         label 0
 8  COc1cc(OC)nc(NC(=O)NS(=O)(=O)c2ncccc2C(=O)N(C)C)n1         label 0
 9  CCCCC(CC)CO[N+](=O)[O-] (centres undefined)         label 0
10                                    BrCCBr         label 0

For "Nc1ncc([N+](=O)[O-])s1" , which call appears in the assay record? label 0

For "Oc1cccc2cccnc12" , which call appears in the assay record? label 1

For "COP(=S)(OC)Oc1c(Cl)cc(C)cc1Cl" , which call appears in the assay record? label 0

For "O=C(O)C(F)(F)C(F)(F)C(F)(F)C(F)(F)C(F)(F)C(F)(F)F" , which call appears in the assay record? label 0

----------
read-out: Cytochrome P450 (CYP1A2), CYP1A2 (gene 1544); experiment: LTEA_HepaRG_CYP1A2: Life Technologies and Expression Analysis (LTEA) Assay for Cytochrome P450 (CYP1A2) using HepaRG (AID 2283479); conditions: mRNA level, 48 h; actives raise or lower the signal
Active and inactive are the calls of the source. The calls were made as follows: active = hit-call score of the fitted dose curve at least 0.9, where 1 is the maximum; inactive = score below 0.9.
Pick one and only one: active, inactive

> print(dat)
                                compound  category.label
1  O=[N+]([O-])c1ccc(O)c([N+](=O)[O-])c1          active

For "O=C(O)C(Cl)(Cl)Cl" , which call appears in the assay record? inactive

For O=C1C2(Cl)C3(Cl)C4(Cl)C(Cl)(Cl)C5(Cl)C3(Cl)C1(Cl)C5(Cl)C24Cl (centres undefined) , which call appears in the assay record? active

For CC12CC1(C)C(=O)N(c1cc(Cl)cc(Cl)c1)C2=O (centres undefined) , which call appears in the assay record? active
